Listed molecules paired with reported TGI
tested on: SR leukemia; assay: NCI tumour cell line growth inhibition, 48 h
observed_property: TGI

structure_as_smiles	tgt	observed_property	reported_result
O=C(CCN1CCN(c2cnc3ccccc3n2)CC1)c1csc2ccccc12	SR leukemia	TGI	> 100 µM
Cc1sc2nc3n(c(=O)c2c1C)N=CN(c1ccccc1)C3	SR leukemia	TGI	> 100 µM
COc1ccc(C(=S)N2CCN(c3cccc(Cl)c3)CC2)cc1	SR leukemia	TGI	> 100 µM

###

tested on: SNB-19 CNS; assay: NCI tumour cell line growth inhibition, 48 h
Listed molecules paired with reported GI50

molecule	tgt	GI50
CNC(=O)c1ccccc1CC1(O)c2ccccc2Oc2ccccc21	SNB-19 CNS	24.6 µM
C=C1C(=O)O[C@H]2[C@H]1CC/C(CNC(=O)c1c[nH]c3ccc(F)cc13)=C\CC[C@@]1(C)O[C@@H]21	SNB-19 CNS	11.9 µM
COc1cc(C(=O)NC2c3ccccc3-c3ccccc32)c(N)cc1OCc1ccccc1	SNB-19 CNS	22.6 µM
NC(N)=N/N=C(/c1ccccc1)c1ccc(F)cc1	SNB-19 CNS	0.476 µM
CCCCCCCCCC[C@@H](O)[C@H]1CC[C@H]([C@H]2CC[C@H]([C@H](O)CCCCCCCCCC[C@@H]3CC(CC(C)=O)C(=O)O3)O2)O1 (stereo partly specified)	SNB-19 CNS	1.08 µM
O=C(/C=C/c1ccc(Cl)cc1)c1ccc(Cl)cc1Cl	SNB-19 CNS	13.3 µM

###

system: U251 CNS; test: NCI tumour cell line growth inhibition, 48 h

compound	unit_name	censoring_operator	TGI
NC(N)=N/N=C(/c1ccccc1)c1ccc(F)cc1	µM	=	5.21
Cc1cccc(N2C(=O)C3ON(C(C(N)=O)c4ccccc4)C(c4c5ccccc5c(Cl)c5ccccc45)C3C2=O)c1C (stereo not drawn)	µM	=	15.6
CCOP(=O)(OCC)[C@H](O)c1ccsc1	µM	>	100
Cc1cc2nc3c4cc(Cl)ccc4n(CCN(C)C)c3nc2cc1C	µM	=	3.14
N#CC1=C(N)OC2=C(CSc3ccccc32)C1c1ccc(Br)cc1 (stereo not drawn)	µM	=	19.9
CCCCCCCCCCCCCCCC(=O)NCC(COP(=O)([O-])OCC[N+](C)(C)C)OCC (stereo not drawn)	µM	=	14.4
CC(C)(C)OC(=O)n1cc(CNC(=S)Nc2ccccc2)c2ccccc21	µM	=	16
COc1ccc(/C=C/C=C(/C#N)C(N)=S)cc1	µM	>	100

###

test system: OVCAR-3 ovarian; experiment: NCI tumour cell line growth inhibition, 48 h
observed_property: TGI

compound	tgt	observed_property	reported_result
Cc1ccc(-c2c(N)nc(NC#N)nc2CCC(=O)Nc2ccccc2[N+](=O)[O-])cc1	OVCAR-3 ovarian	TGI	> 100 µM
Cc1ccccc1C(C#N)C(=O)C(=O)Nc1nc([N+](=O)[O-])cs1 (stereo unspecified)	OVCAR-3 ovarian	TGI	> 100 µM
CCN(CC)CCn1c2cc3c(cc2c(=O)c2cccnc21)OCCO3	OVCAR-3 ovarian	TGI	> 10 µM
O=C1CC(c2ccco2)C2(C(=O)NC(=O)NC2=O)C(c2ccco2)C1 (stereo unspecified)	OVCAR-3 ovarian	TGI	> 75 µM
COc1cc(C(=O)NC2c3ccccc3-c3ccccc32)c(N)cc1OCc1ccccc1	OVCAR-3 ovarian	TGI	> 87.3 µM
C=C1C(O)C2CCC(C)(C)C(=O)C2=C(CC(C)C)C12CC2 (stereo unspecified)	OVCAR-3 ovarian	TGI	> 100 µM
Cc1ccn2c3c(c(C(=O)O)c2c1)C(=O)c1ccccc1C3=O	OVCAR-3 ovarian	TGI	> 70.3 µM
O=c1c2ccccc2[nH]c(=S)n1-c1ccc(N=Nc2cccc3c(O)cccc23)cc1	OVCAR-3 ovarian	TGI	> 100 µM
COC1OC(=O)[C@H]2O[N+]([O-])=C(C)[C@@H]12 (stereo partly specified)	OVCAR-3 ovarian	TGI	> 100 µM
Nc1nc(Cl)cc(NCC2(CO)CC(CCc3ccccc3)C2)n1 (stereo unspecified)	OVCAR-3 ovarian	TGI	> 100 µM
C=CC1=CSNN1	OVCAR-3 ovarian	TGI	> 100 µM

###

system: NCI-H522 lung; experiment: NCI tumour cell line growth inhibition, 48 h

molecule	TGI
CCOC(=O)C1=C(C)Nc2ccccc2S1	> 100 µM
C=CC1=CSNN1	> 100 µM
CC(=O)OC1=C2CC3(C)OC(=O)CC(C)(C)C3=CC=C2C=C(C(C)C)C1=O (centres undefined)	0.41 µM
CCOC(=O)c1sc2nc(SC)nc3c2c1N=CN3c1ccc(Br)cc1	> 100 µM

###

test system: HCT-116 colon; experiment: NCI tumour cell line growth inhibition, 48 h
Listed molecules paired with reported TGI
observed_property: TGI

molecule	reported_result
N#Cc1c(NC(=S)NC(=O)c2ccccc2)nc2c(c1-c1ccccc1)CCC2	> 100 µM
c1ccc(C[P+]2(c3ccccc3)c3ccccc3-c3ccccc32)cc1	> 100 µM
O=c1[nH]c2ccccc2cc1C(Cl)=C(Cl)Cl	> 100 µM
COc1cc2ncn(-c3cc(OCc4ccccc4Cl)c(C(N)=O)s3)c2cc1OC	> 22.1 µM
Cn1cc(NC(=O)c2cc(NC(=O)CCCCCCCCCCC(=O)Nc3cc(C(=O)Nc4cc(C(=O)NCCC(=N)N)n(C)c4)n(C)c3)cn2C)cc1C(=O)NCCC(=N)N	> 100 µM
CC(=O)C(CN1CCCCC1)C(c1ccccc1)c1c(O)c2ccccc2oc1=O (stereo unspecified)	> 100 µM

###

Listed molecules paired with reported TGI
tested on: RPMI-8226 leukemia; assay: NCI tumour cell line growth inhibition, 48 h
observed_property: TGI

molecule	reported_result
CCSc1nnc(CSc2nc(-c3ccccc3)c(-c3ccccc3)[nH]2)n1-c1ccccc1	46.1 µM
CC(C)CC(N)C(=O)OCN1C(=O)C2C3C=CC(C2C1=O)C1C2C(=O)N(COC(=O)C(N)CC(C)C)C(=O)C2C31 (centres undefined)	> 78.6 µM
O=C(Nc1nc2ccccc2s1)OCC(F)(F)F	> 100 µM
CCOC(=O)c1cc2c([N+](=O)[O-])c(NC(C)=O)ccc2s1	> 100 µM
CCOC(=O)C(OCC1CC=CCC1)Sc1ccccc1 (centres undefined)	> 100 µM
O=C(NS(=O)(=O)Nc1ccc(Cl)cc1)OCc1ccc(Cl)cc1Cl	> 100 µM
C=CC(=O)Nc1cccc(-c2nc(SC)nc(Nc3ccccc3OC)c2C#N)c1	> 100 µM
COC(=O)C(c1[nH]nc2ccccc12)C(C(=O)OC)c1[nH]nc2ccccc12 (centres undefined)	50.4 µM
O=C1CC(O)c2c1csc2Br (centres undefined)	74.5 µM

###

Listed compounds paired with reported TGI
tested on: T-47D breast; experiment: NCI tumour cell line growth inhibition, 48 h

compound	censoring_operator	TGI (µM)
CCOC(=O)c1cc(=C2\CCN(CC(C)CC)C2=S)/c(=C(/O)CC)[nH]1 (centres undefined)	=	30.9
[N-]=[N+]=Nc1c(Cl)c(=O)n(-c2ccccc2)c2ccccc12	=	28.9
Cc1ccn2c3c(c(C(=O)O)c2c1)C(=O)c1ccccc1C3=O	>	100
Cc1ccc(S(=O)(=O)N2CCN3C(=O)c4ccccc4C32c2ccc(F)cc2)cc1 (centres undefined)	>	100

###

system: SNB-75 CNS; assay: NCI tumour cell line growth inhibition, 48 h
Listed compounds paired with reported TGI
observed_property: TGI (µM)

compound	observed_property	unit_name	censoring_operator	reported_result
CCOC(=O)c1sc2nc(SC)nc3c2c1N=CN3c1ccc(Br)cc1	TGI	µM	>	100
OCC1CCCC(n2cnc3c(=S)nc[nH]c32)O1 (stereo not given)	TGI	µM	>	100
COc1ccc2c(c1)c1c(n2CCN2CCOCC2)-c2ccccc2CC1	TGI	µM	>	100
COc1ccc(-c2cc(-c3cc(Cl)ccc3Cl)nc3[nH]c(-c4cc(F)c(Cl)cc4Cl)cc(=O)c23)cc1	TGI	µM	>	100
CN1CCN(CC#Cc2cccc(C(=O)c3cnn(-c4ccc(F)cc4)c3N)c2)CC1	TGI	µM	>	25
COc1cc2c(c3c1C=CCO3)C(=O)c1ccccc1C2=O	TGI	µM	>	100
COc1cc(/C=C\[N+](=O)[O-])ccc1O	TGI	µM	=	17.2
O=C(NS(=O)(=O)Nc1ccc(Cl)cc1)OCc1ccc(Cl)cc1Cl	TGI	µM	>	100
COc1cc(C(=O)NC2c3ccccc3-c3ccccc32)c(N)cc1OCc1ccccc1	TGI	µM	=	30.7
CCOC(=O)c1cc(C2(O)CCN(Cc3ccccc3)C2=O)c(-c2cc(C)no2)[nH]1 (stereo not given)	TGI	µM	=	85.8
CC(=O)c1ccc(Nc2cc(-c3ccccc3)nc3c(O)cccc23)cc1	TGI	µM	=	50.5
CC(=O)OC1=C2CC3(C)OC(=O)CC(C)(C)C3=CC=C2C=C(C(C)C)C1=O (stereo not given)	TGI	µM	=	1.99
O=C(c1cccs1)c1c(C(F)(F)F)n([O-])c2ccccc2[n+]1=O	TGI	µM	=	9.05
[N-]=[N+]=Nc1c(Cl)c(=O)n(-c2ccccc2)c2ccccc12	TGI	µM	=	50.8
CCOC(=O)c1cc2c([N+](=O)[O-])c(NC(C)=O)ccc2s1	TGI	µM	=	94.1
N#CC(=C1SCS1)[N+](=O)[O-]	TGI	µM	=	8.76
COC(=O)C1=C(C(=O)OC)C2OC1C1C2C2(C)C(C)=C(C)C1(C)S2=O (stereo not given)	TGI	µM	=	38.1
CC(CO)(CO)N=Cc1cc(I)cc(I)c1O	TGI	µM	=	34.8
CCOc1ccc(N/C(=C(/C(Cl)=C(/Cl)NCCN)[N+](=O)[O-])n2nnc3ccccc32)cc1	TGI	µM	>	100
O=c1[nH]cnc2c(C3OC(CO)C(O)C3O)c[nH]c12 (stereo not given)	TGI	µM	>	100
COc1ccc(C(=S)N2CCN(c3cccc(Cl)c3)CC2)cc1	TGI	µM	>	100
CCOc1ccc(S(=O)(=O)/N=C2\C=C(SCC(=O)O)C(=O)c3ccccc32)cc1	TGI	µM	=	4.96
COC1O[C@H]2CCN(C(=O)OCc3ccccc3)[C@H]2[C@H]1OCc1ccccc1 (stereo not given in full)	TGI	µM	>	100
COc1ccc(Nc2[nH]c(C(C)=O)c(N)c2C(=S)Nc2ccccc2)cc1	TGI	µM	>	100
O=c1[nH]c2ccccc2cc1C(Cl)=C(Cl)Cl	TGI	µM	>	100
Cc1ccc2c(c1)nc(N)n[n+]2[O-]	TGI	µM	>	100
C[C@@H]1CC[C@@H]2[C@@H]1[C@H](OC(=O)/C=C/c1ccccc1)[C@]1(c3ccccc3)C[C@@H](OC(=O)CO)[C@@]2(C)O1	TGI	µM	=	37.9
CCCCN(CC)c1nc(C)nc2c1c(C)c(C)n2-c1c(C)cc(C)cc1C	TGI	µM	=	27.4
COc1cccc(/C=C/C(=O)c2cc3c(N)c(C(=O)Nc4ccccc4C)sc3nc2C)c1	TGI	µM	=	3.15
C=CC(=O)N[C@H]1C=C(C)c2c(-c3cnc4ccccc4c3)c3c(N)ncnc3n2C1	TGI	µM	=	30.5
Clc1nc(Cl)nc(NC23CC4CC(CC(C4)C2)C3)n1	TGI	µM	=	36.5
O=C1O[C@@H](c2ccccc2)C[C@@H]1CN1CCOCC1	TGI	µM	>	100
COc1cc2c(cc1OCCCCCOc1cc3c(cc1OC)C(=O)N1CCC[C@H]1C(=O)N3)N=C[C@@H]1CCCN1C2=O	TGI	µM	=	0.0588
COc1ccc(-c2nn(-c3cccc(Cl)c3)cc2C2CC(c3ccccc3)=NN2C(C)=O)cc1 (stereo not given)	TGI	µM	=	5.99
CN(C)/C(=N/C(=S)Nc1ccccc1)SCc1ccccc1	TGI	µM	>	100
Cc1ccc(-c2c(N)nc(NC#N)nc2CCC(=O)Nc2ccccc2[N+](=O)[O-])cc1	TGI	µM	>	100
COc1c(C2CC(=O)Nc3c2cnn3Cc2ccco2)cc2c(c1OC)OCO2 (stereo not given)	TGI	µM	>	100
CC(C)(C)C(=O)C(CC(=O)c1ccccc1)C(=O)C(C)(C)C	TGI	µM	>	100
Cc1c(Cl)cccc1NC(=O)C(=O)C1C(=O)CC(C)(C)CC1=O	TGI	µM	>	100
CCN(CC)CCn1c2cc3c(cc2c(=O)c2cccnc21)OCCO3	TGI	µM	>	10
